Source of measurements: ChEMBL document CHEMBL3098033

# Tested On: Amyloid-beta precursor protein (Homo sapiens) (UniProt P05067)
# Sequence (P05067 whole entry): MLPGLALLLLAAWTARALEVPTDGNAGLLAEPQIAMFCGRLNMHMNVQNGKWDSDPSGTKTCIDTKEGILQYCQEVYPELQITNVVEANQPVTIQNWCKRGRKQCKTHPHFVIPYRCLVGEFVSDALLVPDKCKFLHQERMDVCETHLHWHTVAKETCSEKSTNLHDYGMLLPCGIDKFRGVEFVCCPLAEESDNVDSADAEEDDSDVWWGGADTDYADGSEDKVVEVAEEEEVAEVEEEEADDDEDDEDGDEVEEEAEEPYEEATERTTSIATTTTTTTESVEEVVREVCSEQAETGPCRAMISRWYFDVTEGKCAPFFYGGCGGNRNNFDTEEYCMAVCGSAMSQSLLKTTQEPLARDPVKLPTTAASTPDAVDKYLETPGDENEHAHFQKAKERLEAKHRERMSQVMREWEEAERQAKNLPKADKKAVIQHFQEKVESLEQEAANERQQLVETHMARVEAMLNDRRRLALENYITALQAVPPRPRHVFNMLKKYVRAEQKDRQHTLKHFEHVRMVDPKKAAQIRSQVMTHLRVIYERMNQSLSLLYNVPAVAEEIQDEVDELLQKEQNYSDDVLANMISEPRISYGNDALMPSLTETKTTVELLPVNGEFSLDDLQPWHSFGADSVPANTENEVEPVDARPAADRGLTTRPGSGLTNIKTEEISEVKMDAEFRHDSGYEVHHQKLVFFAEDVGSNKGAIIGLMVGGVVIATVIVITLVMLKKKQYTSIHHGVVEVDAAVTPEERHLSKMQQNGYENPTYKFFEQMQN
# Test Summary: Inhibition of Cu2+-induced amyloid beta (1 to 42) (unknown origin) aggregation at 50 uM after 24 hrs by thioflavin-T based fluorometric assay
Entries and their inhibition values follow.
Reported Endpoint: inhibition (%)

Smiles Repr: Oc1c(I)cc(Cl)c2cccnc12
Reported Endpoint: inhibition
Reported Result: 66.7
//
Smiles Repr: Oc1ccccc1/N=C/c1cccc(F)c1
Reported Endpoint: inhibition
Reported Result: 70.2
//
Smiles Repr: Oc1ccc(/C=N/c2ccccc2O)cc1O
Reported Endpoint: inhibition
Reported Result: 68.1
//
Smiles Repr: Oc1ccc(/C=N/c2ccccc2O)cc1
Reported Endpoint: inhibition
Reported Result: 83.7

###

# Tested On: Amyloid-beta precursor protein (Homo sapiens) (UniProt P05067)
# Test Summary: Inhibition of amyloid beta (1 to 42) (unknown origin) self-induced aggregation at 20 uM after 46 to 48 hrs by thioflavin-T based fluorometric assay
Mark Condition not met for inhibition values under 60%, and Condition met for everything at or above.

Smiles Repr: Oc1ccccc1/C=N/c1ccccc1F
Category: Condition not met
--
Smiles Repr: Oc1ccccc1/N=C/c1ccccc1
Category: Condition not met
--
Smiles Repr: CN(C)c1ccc(/C=N/c2ccccc2O)cc1
Category: Condition not met
--
Smiles Repr: Oc1ccc(/C=N/c2ccccc2O)cc1O
Category: Condition met
--
Smiles Repr: Oc1ccccc1/C=N/c1ccc(F)cc1
Category: Condition not met
--
Smiles Repr: COc1ccc(O)c(/C=N/c2ccccc2)c1
Category: Condition not met
--
Smiles Repr: COc1ccc(/C=N/c2ccccc2O)cc1
Category: Condition not met
--
Smiles Repr: Oc1ccc(/C=N/c2ccccc2O)cc1
Category: Condition met
--
Smiles Repr: Oc1ccc(/N=C/c2ccccc2O)cc1
Category: Condition met
--
Smiles Repr: Oc1ccc(/C=N/c2ccccc2O)c(O)c1
Category: Condition met
--
Smiles Repr: Oc1ccccc1/C=N/c1cccc(F)c1
Category: Condition not met
--
Smiles Repr: Oc1ccccc1/N=C/c1ccccc1F
Category: Condition met
--
Smiles Repr: COc1ccc(/C=N/c2ccccc2O)cc1OC
Category: Condition not met
--
Smiles Repr: Oc1cccc(/N=C/c2ccccc2O)c1
Category: Condition met
